Assay: Pharmacokinetics experiment in rats
Type: in vivo
Conditions: rat; male SD rats, intravenous dosing 4 mg/kg, plasma; read-out: Half life (T1/2) (converted)
measured_property: half-life

molecule	result
CCN(c1cc(-c2ccc3c(c2)CCC3N2CCOCC2)cc(C(=O)NCc2c(OC)cc(C)[nH]c2=O)c1C)C1CCOCC1 (centres unmarked) [Compound 6]	67.2 min
CCN(c1cc(N2Cc3ccc(N4CCOCC4)cc3C2)cc(C(=O)NCc2c(C)cc(C)[nH]c2=O)c1C)C1CCOCC1 [Compound 18]	94.2 min
CCN(c1cc(-c2ccc3c(c2)CCC3N2CCOCC2)c(F)c(C(=O)NCc2c(C)cc(C)[nH]c2=O)c1C)C1CCOCC1 (centres unmarked) [Compound 11]	80.4 min
CCN(c1cc(-c2ccc3c(c2)CCC3N2CCOCC2)c(Cl)c(C(=O)NCc2c(C)cc(C)[nH]c2=O)c1C)C1CCOCC1 (centres unmarked) [Compound 10]	98.4 min
CCN(c1cc(N2Cc3cn(C)cc3C2)cc(C(=O)NCc2c(C)cc(C)[nH]c2=O)c1C)C1CCOCC1 [Compound 21]	103 min

The reported numbers originate from patent US12595267B2.
